Read-out: Cyclin D1 (CCND1), CCND1 (gene 595)
Assay: LTEA_HepaRG_CCND1: Life Technologies and Expression Analysis (LTEA) Assay for Cyclin D1 (CCND1) using HepaRG (AID 2283451)
Conditions: mRNA level, 48 h; actives raise or lower the signal
Calls of active or inactive are those of the source. Rule for the calls: active = hit-call score of the fitted dose curve at least 0.9, where 1 is the maximum; inactive = score below 0.9.
Possible outcomes: active, inactive

>  <compound>
Clc1ccc(C(c2ccc(Cl)cc2)C(Cl)(Cl)Cl)cc1

>  <classification>
inactive

$$$$
>  <compound>
CCOc1cccc(C2(N3CCN(c4ccccc4)CC3)CCC(C)CC2)c1 (centres undefined)

>  <classification>
inactive

$$$$
>  <compound>
Clc1ccccc1Cl

>  <classification>
inactive

$$$$
>  <compound>
CCCCOC(=O)c1ccccc1C(=O)OCc1ccccc1

>  <classification>
inactive

$$$$
>  <compound>
N#CC(Br)Br

>  <classification>
inactive

$$$$
>  <compound>
ClC1=C(Cl)[C@]2(Cl)[C@H]3[C@H]([C@@H]4C=C[C@H]3C4)[C@@]1(Cl)C2(Cl)Cl

>  <classification>
inactive

$$$$
>  <compound>
Cc1ccc(N=C=O)cc1N=C=O

>  <classification>
inactive

$$$$
>  <compound>
c1ccc2c(c1)-c1cccc3cccc-2c13

>  <classification>
inactive

$$$$
>  <compound>
O=C(Nc1ccccc1)c1ccccc1I

>  <classification>
active

$$$$
>  <compound>
CC(C)(O)c1cnn2c(-c3ccc(F)c(-c4c(F)cccc4C#N)c3)cnc2n1

>  <classification>
inactive

$$$$
>  <compound>
O=C(O)C1C2CCC(O2)C1C(=O)O (centres undefined)

>  <classification>
active

$$$$
>  <compound>
ClCCOCCCl

>  <classification>
inactive

$$$$
>  <compound>
CCCCCCCCCCCCCN1CC(C)OC(C)C1 (centres undefined)

>  <classification>
inactive

$$$$
>  <compound>
C[N+](C)(C)CC1CO1 (centres undefined)

>  <classification>
inactive

$$$$

* * *

Experiment: ATG_Ets_CIS: Attagene CIS-FACTORIAL HepG2 Assay for human Erythroblast Transformation Specific (ETS) (AID 2282941)
Settings: HepG2 ETS cis-reporter transcription, actives raise or lower the signal
Active and inactive are the calls of the source. The calls were made as follows: active = hit-call score of the fitted dose curve at least 0.9, where 1 is the maximum; inactive = score below 0.9.
Possible outcomes: active, inactive

>  <molecule>
Nc1ccc([N+](=O)[O-])cc1

>  <classification>
inactive

$$$$
>  <molecule>
CCC12COCN1COC2

>  <classification>
inactive

$$$$
>  <molecule>
COC(=O)c1ccccc1N

>  <classification>
inactive

$$$$
>  <molecule>
Cc1cc(N=Nc2ccccc2C)ccc1N

>  <classification>
inactive

$$$$
>  <molecule>
CCOc1cccc(C2(N3CCN(c4ccccc4)CC3)CCC(C)CC2)c1 (stereo unspecified)

>  <classification>
inactive

$$$$
>  <molecule>
Nc1ccc(Cc2ccc(N)cc2)cc1

>  <classification>
inactive

$$$$
>  <molecule>
O=C(O)C1C2CCC(O2)C1C(=O)O (stereo unspecified)

>  <classification>
inactive

$$$$
>  <molecule>
CCN(CC)CCO

>  <classification>
inactive

$$$$
>  <molecule>
Oc1ccc2ccc3cccc4ccc1c2c34

>  <classification>
inactive

$$$$
>  <molecule>
OCCCl

>  <classification>
inactive

$$$$
>  <molecule>
N#CC(Br)Br

>  <classification>
inactive

$$$$
>  <molecule>
CCCCOC(=O)c1ccccc1C(=O)OCc1ccccc1

>  <classification>
inactive

$$$$
>  <molecule>
Brc1ccc(Oc2ccccc2)cc1

>  <classification>
inactive

$$$$
>  <molecule>
CCCCCOC(=O)c1ccccc1C(=O)OCCCCC

>  <classification>
inactive

$$$$
>  <molecule>
Cc1ccc(N=C=O)cc1N=C=O

>  <classification>
inactive

$$$$
>  <molecule>
CCCCCCCCn1sccc1=O

>  <classification>
active

$$$$
